Source listed as ChEMBL document CHEMBL1201862.

- Tested on: DNA repair protein RAD52 homolog (Homo sapiens, UniProt P43351)
- Sequence (P43351 whole entry): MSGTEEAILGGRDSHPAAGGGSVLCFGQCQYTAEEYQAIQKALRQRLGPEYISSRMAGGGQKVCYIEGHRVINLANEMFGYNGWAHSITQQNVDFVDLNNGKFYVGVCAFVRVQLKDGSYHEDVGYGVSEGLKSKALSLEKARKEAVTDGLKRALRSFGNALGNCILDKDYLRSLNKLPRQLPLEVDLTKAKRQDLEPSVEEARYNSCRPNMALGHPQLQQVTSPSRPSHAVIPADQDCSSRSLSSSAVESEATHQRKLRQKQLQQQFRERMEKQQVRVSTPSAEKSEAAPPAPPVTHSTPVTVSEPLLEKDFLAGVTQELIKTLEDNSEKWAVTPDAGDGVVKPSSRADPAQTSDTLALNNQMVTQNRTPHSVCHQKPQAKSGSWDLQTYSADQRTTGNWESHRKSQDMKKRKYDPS
- Format: functional, biochemical
Active and inactive are the calls of the source.
Quick reference: AC50 of the listed items.

Compound: COc1ccc(Nc2cc(C)nc3ccc(OC)cc23)cc1
Tested on: DNA repair protein RAD52 homolog (Homo sapiens, UniProt P43351)
AC50: 15 µM (active)
//
Compound: CN(C)c1ccc(NC(=O)CN2CCC(NC(=O)C3CCCCC3)CC2)cc1
Tested on: DNA repair protein RAD52 homolog (Homo sapiens, UniProt P43351)
AC50: 14.8 µM (active)
//
Compound: CCN1CCN(c2cc(C)c3cc(NC(=O)c4cc(OC)cc(OC)c4)ccc3n2)CC1
Tested on: DNA repair protein RAD52 homolog (Homo sapiens, UniProt P43351)
AC50: 11.2 µM (active)
//
Compound: O=C(NN=Cc1cccc([N+](=O)[O-])c1)c1cc[n+](CCO)cc1
Tested on: DNA repair protein RAD52 homolog (Homo sapiens, UniProt P43351)
AC50: 14.1 µM (active)
//
Compound: CN(C)CCNC(=O)c1cccc(-c2cnc3c(NC=O)cc(-c4ccc(S(C)(=O)=O)cc4)cn23)c1
Tested on: DNA repair protein RAD52 homolog (Homo sapiens, UniProt P43351)
AC50: 5.29 µM (active)
//
Compound: COc1cc2c(cc1OC)-c1cc3ccc(OC)c(OC)c3c[n+]1CC2 [PALMATINE CHLORIDE]
Tested on: DNA repair protein RAD52 homolog (Homo sapiens, UniProt P43351)
AC50: 5.19 µM (active)
//
Compound: CN1CCN(c2nc(Nc3ccc(O)cc3)nc3ccccc23)CC1
Tested on: DNA repair protein RAD52 homolog (Homo sapiens, UniProt P43351)
AC50: 5.21 µM (active)
